# System: TRPC4 beta (transient receptor potential cation channel C4), mouse
# METHOD_DESCRIPTION: positive allosteric modulators of mouse TRPC4, confirmation, cell-based, Fluo-4, HEK293 TRPC4beta/mu-opioid (AID 2555)
# TEST_PARAMETERS: DAMGO EC20, Fluo-4 calcium flux, at 10 µM
Activity calls are given as the source filed them.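 How the source made its calls: active means primary screen hit whose calcium fluorescence ratio, in both repeats, exceeds the weak agonist control mean by 3 SD; inactive means the rest.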
Entry note: the call must match one of Yes for active, No for inactive

Here are 3 compounds together with their reported answers.
COMPOUND: c1ccc2oc(N3CCNCC3)nc2c1
CLASS_LABEL: Yes
--
COMPOUND: Cc1cc(-c2ccccc2)cc(C)[n+]1Cc1ccccc1
CLASS_LABEL: No
--
COMPOUND: CCOc1cc(CNCCc2c[nH]c3ccccc23)cc(Cl)c1OC
CLASS_LABEL: No

Name the outcome recorded for CCn1ccnc1CN1CCCC(C(=O)c2cccc(C(F)(F)F)c2)C1 (stereo not drawn) in the assay.
No

Name the outcome recorded for `Cc1ccccc1CN1CCNCC1` in the assay.
No

Name the outcome recorded for CCOc1c(Cl)cc(CNC(C)C(O)c2ccccc2)cc1OC (stereo not drawn) in the assay.
No

Name the outcome recorded for COC(=O)C(Cc1ccc(N(CCCl)CCCl)cc1)N=Cc1ccccc1O (stereo not drawn) in the assay.
No

Name the outcome recorded for `CCc1n[nH]c(CCN)n1` in the assay.
No
